Cited source for all entries: paper PMC7851014

protocol_notes: Ibrutinib and SMT-conjugate pharmacokinetics in human subjects (plasma of patients A and B)
test_context: patient A, sample ID 15, T NA, 1xdd 420mg, omitted (no group)
outcome_measure: Concentration (nM)
Answers are plain numbers, in nM.

Your task in this section: give Concentration for each listed record.
1. Nc1ncnc2c1c(-c1ccc(Oc3ccccc3)cc1)nn2[C@@H]1CCCN(C(=O)CCSC[C@H](N)C(=O)NCC(=O)O)C1
2. C=CC(=O)N1CCC[C@@H](n2nc(-c3ccc(Oc4ccccc4)cc3)c3c(N)ncnc32)C1 [Ibrutinib, reference compound]

-- reply
[5.1, 15.8]

Your task in this section: give Concentration for each listed record.
1. Nc1ncnc2c1c(-c1ccc(Oc3ccccc3)cc1)nn2[C@@H]1CCCN(C(=O)CCSC[C@H](N)C(=O)O)C1
2. Nc1ncnc2c1c(-c1ccc(Oc3ccccc3)cc1)nn2[C@@H]1CCCN(C(=O)C(O)CO)C1 (some centres unmarked) [DHI, dihydrodiol-ibrutinib]

-- reply
12.1
59.3
